system: 327498-153-R-J2-PDC complex spheroid growth, % test/control; assay: Anticancer human tumor 327498-153-R-J2-PDC patient-derived uterine carcinosarcoma cell line growth inhibition [Asc]; conditions: curve of first compound; second compound 1 µM;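 also: spheroids exposed to compound for 7 days after 3 days of growth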
Mark each entry T if its IC50 sits below 200 nM, and F for all others.

MOLECULE	ANSWER_LABEL
C=CC(=O)N1CCN(c2nc(=O)n(-c3c(C)ccnc3C(C)C)c3nc(-c4c(O)cccc4F)c(F)cc23)C(C)C1 (centres undefined) + CNC(C)C(=O)NC1CN(S(=O)(=O)c2cccc(S(=O)(=O)N3CCC4CCC(C(=O)NC(c5ccccc5)c5ccccc5)N4C(=O)C(NC(=O)C(C)NC)C3)c2)CCC2CCC(C(=O)NC(c3ccccc3)c3ccccc3)N2C1=O	F
CCN1C(C(=O)NC23CCC(C(=O)O)(CC2)CC3)C(c2cccc(Cl)c2F)C2(C(=O)Nc3cc(Cl)ccc32)C12CCCCC2 (centres undefined) + Cc1c(S(C)(=O)=O)c(-c2cc(F)cc(N3CCN(c4ccc(NS(=O)(=O)c5ccc(NC(CCN6CCC(C(=O)OCCCP(=O)(O)O)CC6)CSc6ccccc6)c(S(=O)(=O)C(F)(F)F)c5)cc4)CC3)c2)c(-c2ccc(Cl)cc2)n1C(C)C	T
C=CC(=O)N1CCN(c2nc(=O)n(-c3c(C)ccnc3C(C)C)c3nc(-c4c(O)cccc4F)c(F)cc23)C(C)C1 (centres undefined) + Cc1c(S(C)(=O)=O)c(-c2cc(F)cc(N3CCN(c4ccc(NS(=O)(=O)c5ccc(NC(CCN6CCC(C(=O)OCCCP(=O)(O)O)CC6)CSc6ccccc6)c(S(=O)(=O)C(F)(F)F)c5)cc4)CC3)c2)c(-c2ccc(Cl)cc2)n1C(C)C	F
C=C(F)C(=O)N1CCN(c2nc(OCC3CCCN3C)nc3c2CCN(c2cccc4cccc(Cl)c24)C3)CC1CC#N (centres undefined) + Cc1c(S(C)(=O)=O)c(-c2cc(F)cc(N3CCN(c4ccc(NS(=O)(=O)c5ccc(NC(CCN6CCC(C(=O)OCCCP(=O)(O)O)CC6)CSc6ccccc6)c(S(=O)(=O)C(F)(F)F)c5)cc4)CC3)c2)c(-c2ccc(Cl)cc2)n1C(C)C	F
O=C(c1cc(Cc2n[nH]c(=O)c3ccccc23)ccc1F)N1CCN(C(=O)C2CC2)CC1 + Cc1c(S(C)(=O)=O)c(-c2cc(F)cc(N3CCN(c4ccc(NS(=O)(=O)c5ccc(NC(CCN6CCC(C(=O)OCCCP(=O)(O)O)CC6)CSc6ccccc6)c(S(=O)(=O)C(F)(F)F)c5)cc4)CC3)c2)c(-c2ccc(Cl)cc2)n1C(C)C	F
Cn1ncnc1[C@H]1c2n[nH]c(=O)c3cc(F)cc(c23)N[C@@H]1c1ccc(F)cc1 + Cc1c(S(C)(=O)=O)c(-c2cc(F)cc(N3CCN(c4ccc(NS(=O)(=O)c5ccc(NC(CCN6CCC(C(=O)OCCCP(=O)(O)O)CC6)CSc6ccccc6)c(S(=O)(=O)C(F)(F)F)c5)cc4)CC3)c2)c(-c2ccc(Cl)cc2)n1C(C)C	T
Cc1nc(N2CCC3(CC2)COC(C)C3N)c(CO)nc1Sc1ccnc(N)c1Cl (centres undefined) + CNC(C)C(=O)NC1CN(S(=O)(=O)c2cccc(S(=O)(=O)N3CCC4CCC(C(=O)NC(c5ccccc5)c5ccccc5)N4C(=O)C(NC(=O)C(C)NC)C3)c2)CCC2CCC(C(=O)NC(c3ccccc3)c3ccccc3)N2C1=O	F
CNC(C)C(=O)NC1CN(S(=O)(=O)c2cccc(S(=O)(=O)N3CCC4CCC(C(=O)NC(c5ccccc5)c5ccccc5)N4C(=O)C(NC(=O)C(C)NC)C3)c2)CCC2CCC(C(=O)NC(c3ccccc3)c3ccccc3)N2C1=O (centres undefined) + Cc1c(S(C)(=O)=O)c(-c2cc(F)cc(N3CCN(c4ccc(NS(=O)(=O)c5ccc(NC(CCN6CCC(C(=O)OCCCP(=O)(O)O)CC6)CSc6ccccc6)c(S(=O)(=O)C(F)(F)F)c5)cc4)CC3)c2)c(-c2ccc(Cl)cc2)n1C(C)C	F
COc1c(OCCCN2CCOCC2)ccc2c3n(c(=NC(=O)c4cnc(N)nc4)nc12)CCN3 + CNC(C)C(=O)NC1CN(S(=O)(=O)c2cccc(S(=O)(=O)N3CCC4CCC(C(=O)NC(c5ccccc5)c5ccccc5)N4C(=O)C(NC(=O)C(C)NC)C3)c2)CCC2CCC(C(=O)NC(c3ccccc3)c3ccccc3)N2C1=O	T
Cc1nc(N2CCC3(CC2)COC(C)C3N)c(CO)nc1Sc1ccnc(N)c1Cl (centres undefined) + Cc1c(S(C)(=O)=O)c(-c2cc(F)cc(N3CCN(c4ccc(NS(=O)(=O)c5ccc(NC(CCN6CCC(C(=O)OCCCP(=O)(O)O)CC6)CSc6ccccc6)c(S(=O)(=O)C(F)(F)F)c5)cc4)CC3)c2)c(-c2ccc(Cl)cc2)n1C(C)C	F
O=C(c1cc(Cc2n[nH]c(=O)c3ccccc23)ccc1F)N1CCN(C(=O)C2CC2)CC1 + CNC(C)C(=O)NC1CN(S(=O)(=O)c2cccc(S(=O)(=O)N3CCC4CCC(C(=O)NC(c5ccccc5)c5ccccc5)N4C(=O)C(NC(=O)C(C)NC)C3)c2)CCC2CCC(C(=O)NC(c3ccccc3)c3ccccc3)N2C1=O	F
Cn1ncnc1[C@H]1c2n[nH]c(=O)c3cc(F)cc(c23)N[C@@H]1c1ccc(F)cc1 + CNC(C)C(=O)NC1CN(S(=O)(=O)c2cccc(S(=O)(=O)N3CCC4CCC(C(=O)NC(c5ccccc5)c5ccccc5)N4C(=O)C(NC(=O)C(C)NC)C3)c2)CCC2CCC(C(=O)NC(c3ccccc3)c3ccccc3)N2C1=O	T
